// reported YAP1 (% UTC) for each item listed
- Tested on: Yap1 mRNA
- assay.notes: Antisense inhibition of human Yap1 in A-431 cells by cEt gapmers, single dose (Example 2, RTS4814)
- Type: cell-based
- cond: Table 20; Yap1 mRNA, percent of untreated control; 3-10-3 cEt gapmers targeting SEQ ID NO.: 1 and 2
Strand notation (5' to 3'): a small letter for the sugar, then the base; units joined by * are phosphorothioate-linked, units joined directly phosphodiester-linked; [ ] holds rarer units or linkages, { } end groups; capitals alone tell only the bases. k = constrained ethyl (cEt); [5mC] = 5-methylcytosine; d = 2'-deoxy (DNA)

Sample 1074726 (antisense kG*kG*kT*dA*dT*dA*dA*d[5mC]*dT*dG*dG*dG*d[5mC]*kA*kA*kA) [Compound 1074726] ; YAP1 (% UTC) observed: 2 % UTC

Sample 1074566 (antisense k[5mC]*kA*k[5mC]*dT*dG*dA*dA*dT*dT*d[5mC]*d[5mC]*dA*dA*kT*k[5mC]*kG) [Compound 1074566] ; YAP1 (% UTC) observed: 3 % UTC

Sample 1076326 (kG*k[5mC]*kT*dA*dA*dT*dA*dA*dT*dG*dG*dA*dA*kG*kA*kG; antisense) [Compound 1076326] ; YAP1 (% UTC) observed: 4 % UTC

Sample 1075110 (antisense kG*kA*k[5mC]*dT*dA*dA*dA*dA*dA*d[5mC]*dA*dT*dT*kG*kT*kG) [Compound 1075110] ; YAP1 (% UTC) observed: 120 % UTC

Sample 1074758 (k[5mC]*kA*kG*dT*dT*dA*dA*dG*d[5mC]*dA*d[5mC]*dT*dT*kT*kT*kA; antisense) [Compound 1074758] ; YAP1 (% UTC) observed: 4 % UTC

Sample 1076390 (kG*kA*kT*d[5mC]*dG*dA*dA*dA*dT*dA*dT*dT*d[5mC]*kG*kA*kG; antisense) [Compound 1076390] ; YAP1 (% UTC) observed: 54 % UTC
